Values compiled from PubChem BioAssay (NCI).

- Test system: HCC-2998 colon
- protocol-summary: NCI-60 one-dose screen, 48 h (100 = growth as untreated, 0 = no growth, -100 = all killed)
- measurement-context: 10 µM unless noted
The panel holds about 83,000 compounds, 20% with a hit somewhere; the sample as a whole holds those more often.
readout-name: growth (%)
Dear colleague, please return just the value in %, with no unit written.

Query :: Give reported growth value for C#Cc1nc(/C=C\CCCCCCC(=O)NO)cs1
Result :: 98.8

Query :: Give growth for C#C[C@]1(O)CC[C@H]2[C@@H]3CC=C4c5sc(Nc6cc(C)cc(C)c6)nc5CC[C@]4(C)[C@H]3CC[C@@]21C
Result :: 40.2

Query :: Specify reported growth for the compound shown: CCc1cc(OC(=O)N2CCN(CCC(C)(COC(C)(C)C)COC(C)(C)C)CC2)ccc1Nc1cc(-c2ccc(-n3cccn3)cc2)[nH]n1
Result :: 91.5

Query :: # return recorded growth for entry O=S(=O)(NCCCNc1nccc(-c2[nH]c(-c3ccccc3)nc2-c2ccc(F)c(O)c2)n1)c1ccccc1
Result :: 126

###

Can you tell me growth for the items I'm about to list?
- Tested on: LOX IMVI melanoma
- protocol-summary: NCI-60 one-dose screen, 48 h (100 = growth as untreated, 0 = no growth, -100 = all killed)
- measurement-context: 10 µM unless noted
The panel holds about 83,000 compounds, 20% with a hit somewhere; the sample as a whole holds those more often.
Number only, in %; omit the unit.

Query :: Look up growth of N#Cc1c(-c2cccs2)c(C#N)c(=O)n(Cc2nc3ccccc3[nH]2)c1N and report it.
Result :: 100

Query :: Respond only with growth recorded for NC(=O)c1ncn2c(=O)n(CCF)nnc12
Result :: 26.1

Query :: State its growth for this compound: CCOC(=O)C1=C(C)NC(C)=C(C(=O)OCc2ccccc2)C1c1cccc(C#N)c1 (centres undefined)
Result :: 35.8

Query :: Please give the documented growth of CN(C)c1cccc2c(S(=O)(=O)Nc3cccc(-c4csc(NC(=O)CCCCCN5CCN(CCO)CC5)n4)c3)cccc12
Result :: 12.9

Query :: Find the measured growth of C=C(C=O)[C@@H]1CC[C@]2(C(=O)O)CC[C@]3(C)C(CC[C@@H]4[C@@](C)(CCC#N)[C@H](C(=C)C=O)CC[C@]43C)[C@@H]12 (some centres undefined) and report it.
Result :: -81.7

Query :: Tell me its growth given CCc1nnc(NC(=O)c2cc(-c3ccc(Cl)cc3Cl)oc2C)s1 as the entry.
Result :: 74.4

Query :: Please list growth recorded for the compound Brc1cc(-c2cc(-c3ccc4c(c3)OCCO4)[nH]n2)cs1
Result :: 42.3

Query :: State its growth: C=CCSC1=NC2C(N(CC)C(=O)N2CC)N1/N=C/C=C/c1ccccc1OC (centres undefined)
Result :: 68.9

Query :: Identify measured growth corresponding to C[C@H]1OCC2(CCN(c3cnc(C(=O)Nc4cc(F)cc5cccnc45)cn3)CC2)[C@H]1N
Result :: 33.2

Query :: For O=C(CSc1nnc(-c2ccc(Cl)cc2)n1-c1ccccc1)Nc1ccccc1Cl , write its growth.
Result :: 15

Query :: Quick one: give measured growth for CCC(=C(c1ccc(OCCN2CCCCCC2)cc1)c1ccc(OCCN2CCCCCC2)cc1)c1ccc(Cl)cc1
Result :: -89.6

Query :: Output growth of CS(=O)(=O)c1ccc(/C(=N/N=C(N)N)c2ccc(Cl)cc2)cc1
Result :: 79.7

Query :: Give the value of growth reported for the following: CNC(=O)c1cc(N2CCc3cc(NC(=O)Nc4ccc(N5CCOCC5)c(C(F)(F)F)c4)ccc32)ccn1
Result :: 12.5

Query :: Entry CC1(C)CC[C@]23CC[C@]4(C)[C@H](CC[C@@H]5[C@@]6(C)CC[C@H](NCO)C(C)(C)[C@@H]6CC[C@]54C)[C@H]2[C@H]1OC3 needs its growth filled in; supply it.
Result :: -89.9

Query :: Give recorded growth. CNC(=O)Nc1ccc(Nc2cc(-c3ccc(-n4cccn4)cc3)[nH]n2)c(C)c1
Result :: 129

Query :: Please give measured growth of the following entry: O=C(Nc1ccc(N=Cc2c(O)[nH]c3ccccc23)cc1)Nc1ccc(S(=O)(=O)Nc2ncccn2)cc1
Result :: 101

Query :: # return recorded growth for entry COc1cc2cc(Oc3ccc(NC(=O)c4cc(C(F)(F)F)cc(C(F)(F)F)c4)cc3)c(C)nc2cc1OCCN1CCOCC1
Result :: 69.6

Query :: Note growth for the compound shown: CC(=O)/C(N=Nc1ccc2oc(=O)ccc2c1)=C(\C)O
Result :: 19

Query :: Identify measured growth associated with COc1ccc(/C=N/NC(=O)CSc2nc(-c3cnccn3)cc(-c3cccs3)c2C#N)cc1
Result :: 45.7

###

For each record, write down the corresponding growth.
- Test system: CAKI-1 renal
- protocol-summary: NCI-60 one-dose screen, 48 h (100 = growth as untreated, 0 = no growth, -100 = all killed)
- measurement-context: 10 µM unless noted
About 83,000 compounds went through this panel and 20% of them were active in at least one assay; those are over-represented in the sample as a whole.
Kindly answer with a numeric value in %, unit omitted.

Query :: Output growth of O=C1C(N2CCN(c3ccccc3)CC2)=C(Cl)C(=O)c2ncccc21
Result :: 39.9

Query :: Give me measured growth, please, for this compound: COC(=O)CCSC1=C(C)C(=O)c2ccccc2C1=O
Result :: 80.4

Query :: Specify reported growth for the compound shown: COc1ccc(C(=O)c2c(N)c(C#N)cn2-c2ccc(Cl)cc2Cl)cc1
Result :: 91.7

Query :: Report growth, nothing else, for this compound: C[C@H](Nc1ncnc2ccc(-c3cnc(Cl)c(NS(C)(=O)=O)c3)cc12)c1ccccc1
Result :: -22.4

Query :: Output growth of NCCNC(=O)c1cccc(COc2ccccc2NC(=O)c2cc(Cl)c(Cl)[nH]2)c1
Result :: 81.9

Query :: Please report the measured growth for Oc1[nH]c2ccc(Cl)cc2c1N=Nc1nc(N=Nc2c(O)[nH]c3ccc(Cl)cc23)nc(N2CCOCC2)n1
Result :: 72

Query :: Give reported growth value for CCNCCOc1ccc(/C(=C(/CC)c2ccc(Cl)cc2)c2ccc(OCCCN(C)C)cc2)cc1
Result :: -75.1

Query :: Using known records, supply growth for O=C(CSc1nnc(-c2ccc(Cl)cc2)n1-c1ccccc1)Nc1ccccc1Cl
Result :: 74.6

Query :: Quote growth reported for C=C(C)[C@@H]1CC[C@]2(COP(=O)(OCC)OCC)CC[C@]3(C)[C@H](CC[C@@H]4[C@@]5(C)CC[C@H](OP(=O)(OCC)OCC)C(C)(C)[C@@H]5CC[C@]43C)[C@@H]12 please.
Result :: 35.2

###

- System: HT29 colon
- protocol-summary: NCI-60 one-dose screen, 48 h
- measurement-context: 10 µM unless noted
- Protocol: Growth inhibition of the HT29 human tumor cell line is measured as a screen for anti-cancer activity. Cells are grown in 96 well plates and exposed to the test compound for 48 hours. Compounds are tested at a single concentration, which is 10^-5 M for most compounds. The reported endpoint is percent growth (GI% or GIPRCNT), where numbers from 0 - 100% represent growth inhibition, and numbers from -100% - 0 represent cell death. For example, a value of 40 represents 60% growth inhibition. […]
The panel holds about 83,000 compounds, 20% with a hit somewhere; the sample as a whole holds those more often. Calls of active or inactive are those of the source. How the source made its calls: active means growth percent below 10; inactive means the rest.
Your answer must be one of the following: label 1 for active, label 0 for inactive

Query :: Please let me know the test result on file for CCN(CC)S(=O)(=O)c1ccc(-c2nc(C(Cl)Cl)nc3cc(C)nn23)cc1 .
Result :: label 1

Query :: Recorded test outcome, item O=[N+]([O-])c1ccc(NC(=S)NNC(=S)Nc2ccc(Br)cc2)cc1
Result :: label 0

Query :: Can you look up the reported call for NC1[C@H]2CN(c3cnc(C(=O)Nc4cc(F)cc5cccnc45)cn3)C[C@@H]12 (stereo partly drawn) for me?
Result :: label 0

Query :: // outcome(item) with item = CN(C)S(=O)(=O)c1ccc(-c2nc(C(Cl)Cl)nc3cc(-c4ccccc4)nn23)cc1
Result :: label 0

Query :: Which outcome was assigned to CN(C)c1cccc2c(S(=O)(=O)Nc3cccc(-c4csc(NC(=O)CCCCCN5CCN(CCO)CC5)n4)c3)cccc12 in this test?
Result :: label 0

Query :: Could you please tell me the result logged for Cc1ccc(-c2nc(SCC(=O)c3ccccc3)nc(Nc3ccc(S(N)(=O)=O)cc3)c2C#N)cc1 in this assay?
Result :: label 0

Query :: Check the results log: what was the call for CCOC(=O)c1c(NC(=O)c2cccc(C(F)(F)F)c2)sc2c1CCC(=O)C2 ?
Result :: label 0

Query :: Dear all, I need the recorded test outcome for CCOC(=O)C(=O)Nc1ccc2c(ccn2C(=O)c2cccc(F)c2)c1 , thank you.
Result :: label 0

Query :: Could you please tell me the result logged for CCCCCC[n+]1ccc(SCC(=O)n2ccc3ccccc32)c2ccccc21 in this assay?
Result :: label 0

Query :: Write down the call the test reported for this compound. Item: CC1=C(C)C(=O)C(Nc2ccc(C)c(C)c2)=C(Br)C1=O
Result :: label 0

Query :: // return assay outcome for COc1ccccc1N1CCN(C2=C(Cl)C(=O)c3ncccc3C2=O)CC1
Result :: label 0

Query :: For CC(O)c1cccc(/C(N)=N/C(N)=N/c2nc3ccccc3s2)c1 (stereo not drawn) , which call appears in the assay record?
Result :: label 0

Query :: Which result was noted for this compound in the test: CN(C)c1ccc(-c2cc(-c3c[nH]c4ccccc34)nc(N)c2C#N)cc1
Result :: label 0

Query :: Could you please tell me the result logged for CC(Nc1c(C#N)cnc2ccc(-c3cncc(-c4n[nH]c(=O)o4)c3)cc12)c1ccccc1 (stereo not drawn) in this assay?
Result :: label 0

Query :: Could you kindly confirm the outcome this assay logged for Cc1ccc2c(n1)C(=O)C(Cl)=C(Nc1ccc(C)c(C)c1)C2=O ?
Result :: label 0

Query :: Per the records of this test, what outcome belongs to O=C(CSc1nc2ccccc2c(=O)n1-c1ccccc1)Nc1ccc(S(=O)(=O)Nc2nccs2)cc1 ?
Result :: label 0

Query :: Call for entry CC1=C(C)C(=O)C(Nc2cccc(C(=O)OC(C)(C)C)c2)=CC1=O :
Result :: label 0

Query :: Recorded test call requested for O=C1C(SCc2ccccc2)=C(Cl)CN1c1ccccc1
Result :: label 0

Query :: Field: outcome | Entry: COc1ccc([C@H]2C(=O)N(c3cc(OC)c(OC)c(OC)c3)[C@@H]2c2ccc(OC)c(O)c2)cc1
Result :: label 1

Query :: How was Cc1csc(/N=C(N)/N=C(\N)c2cccc(C#N)c2)n1 classified in this test?
Result :: label 0

Query :: Which outcome did this test record for the compound C#CCOc1cccc(-c2nc(N)nc(Nc3ccccc3SSc3ccccc3Nc3nc(N)nc(-c4cccc(OCC#C)c4)n3)n2)c1 ?
Result :: label 0

Query :: Please indicate how the test categorized CN1CCN(Cc2ccc(NC(=O)c3cncc(C#Cc4cnc5ccc(OC6CCOCC6)nn45)c3)cc2C(F)(F)F)CC1 .
Result :: label 1

Query :: How was Cc1cc(C)cc(NC2=C(Cl)C(=O)c3nc(C)ccc3C2=O)c1 classified in this test?
Result :: label 0

Query :: What did this assay record as the result for Cc1cc(NS(=O)(=O)c2ccc(NC(=O)CSc3nc4ccccc4c(=O)n3-c3ccccc3)cc2)no1 ?
Result :: label 0

Query :: Lab log entry: O=C(CCl)Nc1ccc(NC(=O)c2cc(Cl)ccc2O)c(Cl)c1 — outcome as called in the assay?
Result :: label 0

Query :: Called result for C=C(C)[C@@H]1CC[C@]2(C(=O)O)CC[C@]3(C)[C@H](CC[C@@H]4[C@@]5(C)C/C(=C/c6ccccn6)C(=O)C(C)(C)[C@@H]5CC[C@]43C)[C@@H]12
Result :: label 0

Query :: Given N#C/C(=C\c1ccc(-c2ccc(Cl)c(Cl)c2)o1)C(=O)Nc1ncc(Cc2ccc(Cl)cc2)s1 , state the outcome it received in this test.
Result :: label 0

Query :: What outcome does the record of this test show for CC(Nc1c(C#N)cnc2ccc(-c3cncc(O)c3)cc12)c1ccccc1 (stereo not drawn) ?
Result :: label 0

Query :: // return assay outcome for O=C1/C(=C/C=C/c2ccco2)SC(=S)N1Cc1ccccc1
Result :: label 0

Query :: Test call for this compound, please: NC1=NC2(CCCC2)N(c2ccc(S(=O)(=O)Nc3nccs3)cc2)C(N)=N1
Result :: label 0

Query :: What is the recorded call for this compound in the test? Cc1ccc(N2CCN(C3=C(Cl)C(=O)c4ncccc4C3=O)CC2)cc1
Result :: label 0

Query :: Tell me the recorded outcome of this test for N#C/C(=C\c1ccc(-c2ccc(Cl)cc2)o1)C(=O)Nc1ncc(Cc2ccc(Br)cc2)s1 .
Result :: label 1

Query :: Which result was noted for this compound in the test: O=C(/C=C/c1ccc(Cl)c(Cl)c1)Nc1ncc(Cc2ccc(Cl)c(Cl)c2)s1
Result :: label 0

Query :: Identify the outcome logged in this assay for the compound shown: CN1CCN(c2ccc(Nc3nc(NCCNS(=O)(=O)c4ccc(Cl)cc4)c4sccc4n3)cc2)CC1
Result :: label 0

Query :: Status in this test for CCc1cc2c(cc1Cl)nc1c(=O)[nH]c(=O)nc-1n2CCOCC(C)(C)C ?
Result :: label 0

Query :: Assay outcome for C#C[C@]1(O)CC[C@H]2[C@@H]3CC=C4c5sc(Nc6cc(C)cc(C)c6)nc5CC[C@]4(C)[C@H]3CC[C@@]21C : what was it?
Result :: label 1

Query :: Which outcome was entered for the compound Cn1cc(-c2nnc(N)nc2-c2c[nH]c3ccc(Br)cc23)c2cc(Br)ccc21 in this test?
Result :: label 0

Query :: Dear colleague, could you share the recorded outcome for O=C(/C=C/c1cccc(C(F)(F)F)c1)Nc1cccc(C(F)(F)F)c1 when you have a moment?
Result :: label 0
